Give IC50 at 48 h for every item shown.
assay-overview: In vitro cytotoxic assay
Format: cell-based
conditions: normal peripheral blood mononuclear cells (PBMCs)
Give the number; µM is assumed, so skip it.

Output measured IC50 at 48 h for this item: Oc1cccc(N=c2nc(Cc3ccccc3)[nH]c(=S)[nH]2)c1
189

Output measured IC50 at 48 h for this item: CC(C)N=c1nc(Cc2ccccc2)[nH]c(=S)[nH]1
173

Output measured IC50 at 48 h for this item: Oc1cccc(Nc2nc(Cc3ccccc3)nn2-c2ccccc2)c1
178

Output measured IC50 at 48 h for this item: O=[N+]([O-])c1ccc(N=c2nc(Cc3ccccc3)[nH]c(=S)[nH]2)c(Cl)c1
179

Output measured IC50 at 48 h for this item: O=c1nc(Cc2ccccc2)[nH]c(Nc2nccs2)n1
165
